Listed next: entries and their corresponding Papp A→B at 120 min, 5 μM.
tested on: MDR1; assay: MDCK-MDR1 permeability assay (BBB penetration potential); type: in vitro ADME; conditions: dog, MDCK-MDR1, pH 7.4, MDCK-MDR1: Papp A-B
READOUT NAME: Papp A→B at 120 min, 5 μM (×10⁻⁶ cm/s)

COMPOUND | TESTED TARGET | RESULT UNITS | READOUT NUMBER
Oc1cc(-c2cn[nH]c2)ccc1-c1ccc(O[C@H]2C[C@@H]3CC[C@@H](N3)[C@@H]2F)nn1 (single isomer, unassigned) [43-ENT1] | MDR1 | ×10⁻⁶ cm/s | 7.44
Oc1cc(-n2ccnc2)ccc1-c1ccc(O[C@@H]2C[C@H]3CC(F)(F)[C@@H](C2)N3)nn1 (single isomer, unassigned) [51-ENT1] | MDR1 | ×10⁻⁶ cm/s | 32.2
COc1cc(-c2ccc(-c3ccc(O[C@@H]4C[C@@]5(C)CC[C@](C)(N5)[C@@H]4F)nn3)c(O)c2)cnn1 (single isomer, unassigned) [157-ENT1] | MDR1 | ×10⁻⁶ cm/s | 6.28
Oc1cc(-c2ccccn2)ccc1-c1ccc(O[C@@H]2C[C@H]3CCC[C@H](N3)[C@@H]2F)nn1 (single isomer, unassigned) [77-ENT1] | MDR1 | ×10⁻⁶ cm/s | 5.64
Cc1cnc(-c2ccc(-c3ccc(O[C@@H]4C[C@H]5CCC[C@H](N5)[C@@H]4F)nn3)c(O)c2)cn1 (single isomer, unassigned) [78-ENT1] | MDR1 | ×10⁻⁶ cm/s | 7.17
Cn1cnc2cc(O)c(-c3ccc(O[C@@H]4C[C@@]5(C)CCC[C@](C)(N5)[C@@H]4F)nn3)cc2c1=O (single isomer, unassigned) [133-ENT2] | MDR1 | ×10⁻⁶ cm/s | 5.25
Cn1cc(-c2cc(O)c(-c3ccc(O[C@H]4C[C@@H]5CCC[C@@H](N5)[C@H]4F)nn3)cn2)cn1 (single isomer, unassigned) [64-ENT2] | MDR1 | ×10⁻⁶ cm/s | 0.21
Oc1cc(-n2cccn2)ccc1-c1ccc(O[C@@H]2C[C@H]3CC[C@H](N3)[C@@H]2F)nn1 (single isomer, unassigned) [35-ENT1] | MDR1 | ×10⁻⁶ cm/s | 8.31
Cn1cc(-c2cc(O)c(-c3ccc(O[C@@H]4C[C@H]5CCC[C@H](N5)[C@@H]4F)nn3)cc2F)cn1 (single isomer, unassigned) [82-ENT1] | MDR1 | ×10⁻⁶ cm/s | 4.12
Oc1cc(-c2nnco2)ccc1-c1ccc(O[C@@H]2C[C@H]3CCC[C@H](N3)[C@@H]2F)nn1 (single isomer, unassigned) [117-ENT1] | MDR1 | ×10⁻⁶ cm/s | 7.92
C[C@@]12CC[C@@](C)(N1)[C@@H](F)[C@@H](Oc1ccc(-c3ccc(C#N)cc3O)nn1)C2 (single isomer, unassigned) [152-ENT2] | MDR1 | ×10⁻⁶ cm/s | 10
Cc1cc(-c2ccc(-c3ccc(O[C@@H]4C[C@H]5CCC[C@H](N5)[C@@H]4F)nn3)c(O)c2)co1 (single isomer, unassigned) [98-ENT1] | MDR1 | ×10⁻⁶ cm/s | 1.13

###

Listed next: entries and their corresponding Papp B→A at 120 min, 5 μM.
system: MDR1; experiment: MDCK-MDR1 permeability assay (BBB penetration potential); format: in vitro ADME; conditions: dog, MDCK-MDR1, pH 7.4, MDCK-MDR1: Papp B-A

COMPOUND | TESTED TARGET | Papp B→A at 120 min, 5 μM / ×10⁻⁶ cm/s
Oc1cc2ccncc2cc1-c1ccc(O[C@H]2C[C@@H]3CCC[C@@H](N3)[C@H]2F)nn1 (single isomer, unassigned) [81-ENT2] | MDR1 | 26.4
Oc1cc(-c2cnccn2)ccc1-c1ccc(O[C@H]2C[C@@H]3CCC[C@@H](N3)[C@H]2F)nn1 (single isomer, unassigned) [79-ENT2] | MDR1 | 25.8
Cn1ccc(-c2ccc(-c3ccc(O[C@@H]4C[C@H]5CCC[C@H](N5)[C@@H]4F)nn3)c(O)c2)nc1=O (single isomer, unassigned) [107-ENT1] | MDR1 | 10
Cc1ccc(-c2ccc(-c3ccc(O[C@H]4C[C@@H]5CCC[C@@H](N5)[C@H]4F)nn3)c(O)c2)cn1 (single isomer, unassigned) [67-ENT2] | MDR1 | 20.7
Oc1cc2nccnc2cc1-c1ccc(O[C@H]2C[C@@H]3CCC[C@@H](N3)[C@H]2F)nn1 (single isomer, unassigned) [104-ENT2] | MDR1 | 53.6
Oc1cc(-c2ccn3cnnc3c2)ccc1-c1ccc(O[C@@H]2C[C@H]3CCC[C@H](N3)[C@@H]2F)nn1 (single isomer, unassigned) [86-ENT1] | MDR1 | 24.7
Cc1cc(-c2ccc(-c3ccc(O[C@@H]4C[C@H]5CCC[C@H](N5)[C@@H]4F)nn3)c(O)c2)cs1 (single isomer, unassigned) [101-ENT1] | MDR1 | 0.76
C[C@@]12CC[C@@](C)(N1)[C@@H](F)[C@@H](Oc1ccc(-c3ccc(-n4cccn4)cc3O)nn1)C2 (single isomer, unassigned) [153-ENT2] | MDR1 | 24.7

###

Listed next: entries and their corresponding MDCK-MDR1: % Recov B-A.
test system: MDR1-MDCK cell monolayers; test: MDCK-MDR1 permeability assay (BBB penetration potential); format: in vitro ADME; details: dog, MDCK-MDR1, 120 min, 5 μM, pH 7.4
READOUT NAME: MDCK-MDR1: % Recov B-A

COMPOUND | TESTED TARGET | RESULT
Cn1ccc2cc(-c3ccc(O[C@@H]4C[C@H]5CC[C@H](N5)[C@@H]4F)nn3)c(O)cc2c1=O (single isomer, unassigned) | MDR1-MDCK cell monolayers | 92%
CN(C)C(=O)c1cc2cc(O)c(-c3ccc(O[C@@H]4C[C@@]5(C)CCC[C@](C)(N5)[C@@H]4F)nn3)cc2o1 (single isomer, unassigned) | MDR1-MDCK cell monolayers | 95%
Oc1cc(-c2cn[nH]c2)ccc1-c1ccc(O[C@H]2C[C@@H]3CC[C@@H](N3)[C@@H]2F)nn1 (single isomer, unassigned) | MDR1-MDCK cell monolayers | 79%
Cn1ccc2cc(O)c(-c3ccc(O[C@H]4C[C@@H]5CC[C@@H](N5)[C@H]4F)nn3)cc2c1=O (single isomer, unassigned) | MDR1-MDCK cell monolayers | 91%
Oc1cc(-c2ccc3cncn3c2)ccc1-c1ccc(O[C@H]2C[C@@H]3CCC[C@@H](N3)[C@H]2F)nn1 (single isomer, unassigned) | MDR1-MDCK cell monolayers | 61%
Oc1cc(-n2ccnn2)ccc1-c1ccc(O[C@H]2C[C@@H]3CCC[C@@H](N3)[C@H]2F)nn1 (single isomer, unassigned) | MDR1-MDCK cell monolayers | 93%
Cn1ccc2cc(O)c(-c3ccc(O[C@H]4C[C@]5(C)CC[C@@](C)(N5)[C@H]4F)nn3)cc2c1=O (single isomer, unassigned) | MDR1-MDCK cell monolayers | 80%
Cc1nc(-c2ccc(-c3ccc(O[C@@H]4C[C@H]5CCC[C@H](N5)[C@@H]4F)nn3)c(O)c2)cs1 (single isomer, unassigned) | MDR1-MDCK cell monolayers | 67%
Oc1cc(-c2cc[nH]n2)ccc1-c1ccc(O[C@@H]2C[C@H]3CCC[C@H](N3)[C@@H]2F)nn1 (single isomer, unassigned) | MDR1-MDCK cell monolayers | 80%
Cc1ccc(-c2ccc(-c3ccc(O[C@@H]4C[C@H]5CCC[C@H](N5)[C@@H]4F)nn3)c(O)c2)s1 (single isomer, unassigned) | MDR1-MDCK cell monolayers | 49%
Oc1cc(-n2ccnc2)ccc1-c1ccc(O[C@@H]2C[C@H]3CC(F)(F)[C@@H](C2)N3)nn1 (single isomer, unassigned) | MDR1-MDCK cell monolayers | 99%
Cc1nnc(-c2ccc(-c3ccc(O[C@H]4C[C@@H]5CCC[C@@H](N5)[C@H]4F)nn3)c(O)c2)o1 (single isomer, unassigned) | MDR1-MDCK cell monolayers | 87%
Oc1cc(-c2cn[nH]c2)ccc1-c1ccc(O[C@@H]2C[C@H]3CCC[C@H](N3)[C@@H]2F)nn1 (single isomer, unassigned) | MDR1-MDCK cell monolayers | 83%
C[C@@]12CCC[C@@](C)(N1)[C@@H](F)[C@@H](Oc1ccc(-c3ccc(-c4cn[nH]c4)cc3O)nn1)C2 (single isomer, unassigned) | MDR1-MDCK cell monolayers | 83%
Cn1cc(-c2ccc(-c3ccc(O[C@@H]4C[C@@]5(C)CCC[C@](C)(N5)[C@@H]4F)nn3)c(O)c2)cn1 (single isomer, unassigned) | MDR1-MDCK cell monolayers | 92%
C[C@@]12CC[C@@](C)(N1)[C@@H](F)[C@@H](Oc1ccc(-c3ccc(-n4cccn4)cc3O)nn1)C2 (single isomer, unassigned) | MDR1-MDCK cell monolayers | 71%
Oc1cc(-n2ccnn2)ccc1-c1ccc(O[C@@H]2C[C@H]3CCC[C@H](N3)[C@@H]2F)nn1 (single isomer, unassigned) | MDR1-MDCK cell monolayers | 93%
Cc1cnc(-c2ccc(-c3ccc(O[C@H]4C[C@@H]5CCC[C@@H](N5)[C@H]4F)nn3)c(O)c2)cn1 (single isomer, unassigned) | MDR1-MDCK cell monolayers | 83%
C[C@@]12CCC[C@@](C)(N1)[C@@H](F)[C@@H](Oc1ccc(-c3ccc(C#N)cc3O)nn1)C2 (single isomer, unassigned) | MDR1-MDCK cell monolayers | 100%
Cc1ncc(-c2ccc(-c3ccc(O[C@@H]4C[C@H]5CCC[C@H](N5)[C@@H]4F)nn3)c(O)c2)o1 (single isomer, unassigned) | MDR1-MDCK cell monolayers | 78%
N#Cc1ccc(-c2ccc(O[C@@H]3C[C@H]4CCC[C@H](N4)[C@@H]3F)nn2)c(O)c1 (single isomer, unassigned) | MDR1-MDCK cell monolayers | 100%
Oc1cc(-c2ccn3cnnc3c2)ccc1-c1ccc(O[C@@H]2C[C@H]3CCC[C@H](N3)[C@@H]2F)nn1 (single isomer, unassigned) | MDR1-MDCK cell monolayers | 93%
Oc1cc(-n2ncc3ccccc32)ccc1-c1ccc(O[C@@H]2C[C@H]3CC[C@H](N3)[C@@H]2F)nn1 (single isomer, unassigned) | MDR1-MDCK cell monolayers | 47%
